Assay details: protein stability index of a GFP-peptide fusion (GPS, HEK-293T) (PSI 1-6); higher = more stable;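 note: 24-mer peptide tiles fused after GFP, lentivirally expressed, FACS-sorted into six equal bins by GFP/DsRed ratio, decoded by Illumina sequencing, PSI is the read-weighted mean bin number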
Experimental parameters: treatment: DMSO; c terminus: a fixed tail appended
Here the recorded protein stability index is given for each entry.
Write the number on its own, no unit after it.

// below: answered sequences
- Residues: "KMGGKDFSFRYQQELEEEIKELYE [ATL3]"
  protein stability index: 2.52
- Residues: "FSFSMKGHEKTAKSKTRSLLKRME [DLC1]"
  protein stability index: 2.84

Now consider a different sequence.
Exercise: Given the sequence NVPVDDSLVKELLRMCSHGEGKIN [EFHC1] , what is its reported protein stability index?
Solution: 3.39

----------
Here the recorded protein stability index is given for each entry.
Assay details: protein stability index of a GFP-peptide fusion (GPS, HEK-293T) (PSI 1-6); higher = more stable
Experimental parameters: treatment: MLN4924 1 uM, 8 h; c terminus: a fixed tail appended

Exercise: Given the sequence VTLRRGLRSRASRCRPRSLIDYKS [FAM189A2] , what is its reported protein stability index?
Solution: 2.23

Exercise: Queued: RHRLITQVYLSHTAWTEACQVEVR [INTS4]
Solution: 2.43

Exercise: Queued: PENLLLASKSKGAAVKLADFGLAI [CAMK2D]
Solution: 2.13

Exercise: Queued: SPPAAPCPPPPGPAAAPEGDWARL [ZBED3]
Solution: 5.07

Exercise: Queued: DFFWNETWYLKTIDICHDHFGWYL [DHCR7]
Solution: 2.81

----------
Assay details: protein stability index of a GFP-peptide fusion (GPS, HEK-293T) (PSI 1-6); higher = more stable
Experimental parameters: treatment: MLN4924 1 uM, 8 h; c terminus: a fixed tail appended
Parameter: protein stability index
Write the number on its own, no unit after it.

// below: answered sequences
- Residues: "GTVPGQAPRLAVAVPAVTSADSQF [LYSMD4]"
  Recorded number: 4.55
- Residues: "CWQGDPRVRPTFQEITSETEDLCE [RIPK4]"
  Recorded number: 4.72
- Residues: "AVINDIANLPVPTIAAIDGLALGG [AUH]"
  Recorded number: 2.62
- Residues: "LCKIGSERSLVLDRLASNVAKRKS [IKZF1]"
  Recorded number: 3.93
- Residues: "DYSREVNTTEELEALITDPDEMRM [FEM1A]"
  Recorded number: 5.17

Exercise: Given the sequence GGNDLCVWNRKLDLLCKTSHLSDT [WDR41] , what is its reported protein stability index?
Solution: 3.05

Exercise: Queued: GLSDRAKEAKEFLVQLRNMVQQIQ [TRIM9]
Solution: 2.2

Exercise: Queued: TTNVGRYPVGRFPSLHVVKVLLDC [FEM1A]
Solution: 2.48

Exercise: Queued: VAALREEQKVLSRLVESLSTQIRA [RASAL3]
Solution: 2.38

Exercise: Queued: DSTWLLLRRIRAESGTKGLFAGFL [SLC25A39]
Solution: 2.58

Exercise: Queued: DFANTIPGHGGIMDRFDCQYLMAT [CDS1]
Solution: 2.63

Exercise: Queued: GNTIALFFRSLLPNYTMEGERPEE [TCF25]
Solution: 2.72

----------
Assay details: protein stability index of a GFP-peptide fusion (GPS, HEK-293T) (PSI 1-6); higher = more stable
Experimental parameters: treatment: MLN4924 1 uM, 8 h; c terminus: a fixed tail appended
Here the recorded protein stability index is given for each entry.
Write the number on its own, no unit after it.

- Residues: "HMGTNVIVANTMPTHLSNGQMSTP [HNF4A]"
  protein stability index: 3.66
- Residues: "QSLAQPLPGNTTEATPRSLRASGS"
  protein stability index: 5.13
- Residues: "HVPLLAEPSFAQFSQEIGLASLGA [TPH1]"
  protein stability index: 3.09

Now consider a different sequence.
Exercise: Given the sequence LHVWQITWAMRQRGTHAVVGVATA [SPSB1] , what is its reported protein stability index?
Solution: 2.51

Cited source: the supplement of paper PMC10567573
